This section presents pKi values reported for Serine/threonine-protein kinase pim-1 (Homo sapiens, UniProt P11309) in the literature.
Numbers only, as −log10 of the molar value.

[
  {
    "Molecule": "Nc1sc(-c2c(F)cccc2F)nc1C(=O)Nc1cnn(CC(F)F)c1N1CCCC[C@@H](N)C1",
    "Tested Target": "Serine/threonine-protein kinase pim-1 (Homo sapiens, UniProt P11309)",
    "pKi": 10.04
  },
  {
    "Molecule": "Cc1cccc(-c2nc(C(=O)Nc3cnccc3N3CCC[C@H](N)C3)c(N)s2)c1",
    "Tested Target": "Serine/threonine-protein kinase pim-1 (Homo sapiens, UniProt P11309)",
    "pKi": 10.33
  },
  {
    "Molecule": "C=Cc1ccc(-c2n[nH]c3cnc(-c4cccnc4)cc23)nc1N1CCC[C@H](N)C1",
    "Tested Target": "Serine/threonine-protein kinase pim-1 (Homo sapiens, UniProt P11309)",
    "pKi": 10.85
  }
]

Note: attention shifts to another entry.
IN: Form: Entry = NC1CCCN(c2cncc(-c3cc4c(-c5ccccc5F)n[nH]c4cn3)c2)CC1 (stereo not shown) | System = Serine/threonine-protein kinase pim-1 (Homo sapiens, UniProt P11309) | pKi = ____
OUT: 9.24
